EXPERIMENT_NOTES: Solubility in buffered salt solutions of different pH (HPLC external standard)
Assay type: physicochemical
MEASUREMENT_SETUP: buffered salt solution, 25 °C, pH 6.8, aqueous buffer, thermodynamic from solid, buffered salt solution pH 6.8, shaken at 25° C. for 24 h
ENDPOINT_NAME: solubility at 24 h (µg/mL)
The reply should contain only the number, in µg/mL.

Data request, read-out solubility at 24 h, for Cc1cc(Nc2ncc(Cl)c(Nc3ccccc3S(=O)(=O)C(C)C)n2)c2c(c1C1CCNCC1)OCCO2 [Crystal form B] 13

###

EXPERIMENT_NOTES: Solubility in buffered salt solutions of different pH (HPLC external standard)
Format: physicochemical
MEASUREMENT_SETUP: buffered salt solution, 25 °C, pH 1, simulated gastric fluid, thermodynamic from solid, buffered salt solution pH 1.0, shaken at 25° C. for 24 h
ENDPOINT_NAME: solubility at 24 h
I'd appreciate it if you wrote the number followed by its unit.

Data request, read-out solubility at 24 h, for Cc1cc(Nc2ncc(Cl)c(Nc3ccccc3S(=O)(=O)C(C)C)n2)c2c(c1C1CCNCC1)OCCO2 [Crystal form A] 16.9 mg/mL
